molecular target: T1, RSV F ectodomain stabilized in the postfusion conformation (F ΔFP), subtype A (Respiratory syncytial virus subtype A, UniProt P03420 26-109; P03420 147-524); experiment: BLI, IgG on AHQ sensors, 100 nM antigen
T1 construct: extracellular domain; trimer; also called Postfusion subtype A; Postfusion RSV F
# Kd values compiled below
Write the number in nM without appending the unit.

Prompt: For the binder ADI-14527 (antibody, V domains shown, IgG; also called Antibody Number 87) VH: QVQLVQSGAELKRPGSSVKVSCKASGVYLTSVAVNWVRQVPGHGFEWMGGILTGFGKVRHAQAFENRATLTADASTNTAYLELSGLQAEDTAAYYCAIIDPQDCTAASCFWVNWLDPWGQGTLVTVSS VL: EIVLTQSPGTLTVSPGERATLSCRASQSVLSSHLAWYQQKPGQAPRLLIYAASSRATDVPDRFSGSGSGTDFTLTISRLEPQDFAVYYCQQYGSSPITFGQGTRLEIK , give its measured Kd value.
Completion: 0.889

Proceeding to the next binder to report its Kd.
Prompt: Give me measured Kd, please, for this binder: ADI-14528 (antibody, V domains shown, IgG; also called Antibody Number 88) VH: QVQLVQSGAEVKKPGSSVKVSCKVAGGSFSNYAIAWLRQAPGQGLEWMGGIIPAFNRAMYARKFQDRVTITAYASTTTAYLDITGLRSEDTALYYCARPAGDFGDLKWVRSPFDYWGQGTLVTVSS VL: ETTLTQSPGTLSVSPGERATLSCRASQEVGINLAWYQQKPGQAPRLLIYGASTRATDVPARFSGSGSGTEFTLTISSLQSEDFAVYYCQEYNDWPPQLTFGPGTKVDIK
Completion: 35.2
